Origin of the recorded values: patent US20150010928A1

System: male rats
Test: Plasma metabolite profiling (GC-MS, LC-MS, SPE-LC-MS) in male rats dosed once daily over 28 days (OECD 407)
Type: in vivo, rat
Conditions: male rats, plasma, high dose, day 7
experimentalEndpoint: Androstenedione, ratio versus control

CC(=O)O[C@]1(C(C)=O)CC[C@H]2[C@@H]3C[C@H](C)C4=CC(=O)CC[C@]4(C)[C@H]3CC[C@@]21C | 1.68
O=P1(NCCCl)OCCCN1CCCl (centres unmarked) [Ifosfamide] | 3.68

----------
# reported Nervonic acid (C24:cis[15]1); entries follow
Tested on: male rats
Test: Plasma metabolite profiling (GC-MS, LC-MS, SPE-LC-MS) in male rats dosed once daily over 28 days (OECD 407)
Type: in vivo, rat
Conditions: m7; high dose; Table 10a
Structures can show the parent of a compound that is named as a salt. Marks after values point to notes of the source that are not given here.
experimentalEndpoint: Nervonic acid (C24:cis[15]1)

Cn1cc[nH]c1=S [Methimazole] | 2.59 *
Cc1cccc(C)c1N(Cn1cccn1)C(=O)CCl [Metazachlor] | 3.17 *
CNCCC(Oc1ccc(C(F)(F)F)cc1)c1ccccc1 (stereo not shown) [Fluoxetine hydrochloride] | 1.37
CC(C)C(=O)Nc1ccc([N+](=O)[O-])c(C(F)(F)F)c1 [Flutamide] | 1.39 *

----------
# reported Glycine, ratio versus control; entries follow
Tested on: male rats
Experiment: Plasma metabolite profiling (GC-MS, LC-MS, SPE-LC-MS) in male rats dosed once daily over 28 days (OECD 407)
Type: in vivo, rat
Conditions: male rats, plasma, high dose, day 7
Marks after values point to notes of the source that are not given here.
experimentalEndpoint: Glycine, ratio versus control

CCNC(=O)[C@@H]1CCCN1C(=O)[C@H](CCCNC(=N)N)NC(=O)[C@H](CC(C)C)NC(=O)[C@@H](COC(C)(C)C)NC(=O)[C@H](Cc1ccc(O)cc1)NC(=O)[C@H](CO)NC(=O)[C@H](Cc1c[nH]c2ccccc12)NC(=O)[C@H](Cc1cnc[nH]1)NC(=O)[C@@H]1CCC(=O)N1 [Buserelin acetate a.c., Buserelin acetate] | 0.83 *
C#C[C@]1(OC(C)=O)CC[C@H]2[C@@H]3CCC4=CC(=O)CC[C@@H]4[C@H]3CC[C@@]21C [Norethindrone acetate] | 0.86 *
C[C@@H]1CC2=CC(=O)CC[C@@H]2[C@H]2CC[C@@]3(C)[C@@H](CC[C@]3(C)O)[C@@H]21 [Mibolerone] | 0.86 *
CC(=O)O[C@]1(C(C)=O)CC[C@H]2[C@@H]3C[C@H](C)C4=CC(=O)CC[C@]4(C)[C@H]3CC[C@@]21C [Medroxyprogesterone acetat] | 1.05 *
O=P1(NCCCl)OCCCN1CCCl (centres unmarked) [Ifosfamide] | 1.33

----------
# reported Testosterone, ratio versus control; entries follow
System: male rats
Assay: Plasma metabolite profiling (GC-MS, LC-MS, SPE-LC-MS) in male rats dosed once daily over 28 days (OECD 407)
Assay type: in vivo, rat
Conditions: male rats, plasma, high dose, day 14
Marks after values point to notes of the source that are not given here.
experimentalEndpoint: Testosterone, ratio versus control

CC(=O)O[C@]1(C(C)=O)CC[C@H]2[C@@H]3C[C@H](C)C4=CC(=O)CC[C@]4(C)[C@H]3CC[C@@]21C [Medroxyprogesterone acetat] | 0.22 *
O=P1(NCCCl)OCCCN1CCCl (stereo not shown) [Ifosfamide] | 0.21 *
CCNC(=O)[C@@H]1CCCN1C(=O)[C@H](CCCNC(=N)N)NC(=O)[C@H](CC(C)C)NC(=O)[C@@H](COC(C)(C)C)NC(=O)[C@H](Cc1ccc(O)cc1)NC(=O)[C@H](CO)NC(=O)[C@H](Cc1c[nH]c2ccccc12)NC(=O)[C@H](Cc1cnc[nH]1)NC(=O)[C@@H]1CCC(=O)N1 [Buserelin acetate a.c., Buserelin acetate] | 0.19 *
C[C@@H]1CC2=CC(=O)CC[C@@H]2[C@H]2CC[C@@]3(C)[C@@H](CC[C@]3(C)O)[C@@H]21 [Mibolerone] | 0.68 *
